Target: T1, monkey CD22 protein (ACROBiosystems, catalog number SI2-R52Ha) (monkey, UniProt F6W485 20-688)
T1 construct: commercial protein; also called monkey CD22-ECD; monkey CD22-ECD-His
T1 sequence: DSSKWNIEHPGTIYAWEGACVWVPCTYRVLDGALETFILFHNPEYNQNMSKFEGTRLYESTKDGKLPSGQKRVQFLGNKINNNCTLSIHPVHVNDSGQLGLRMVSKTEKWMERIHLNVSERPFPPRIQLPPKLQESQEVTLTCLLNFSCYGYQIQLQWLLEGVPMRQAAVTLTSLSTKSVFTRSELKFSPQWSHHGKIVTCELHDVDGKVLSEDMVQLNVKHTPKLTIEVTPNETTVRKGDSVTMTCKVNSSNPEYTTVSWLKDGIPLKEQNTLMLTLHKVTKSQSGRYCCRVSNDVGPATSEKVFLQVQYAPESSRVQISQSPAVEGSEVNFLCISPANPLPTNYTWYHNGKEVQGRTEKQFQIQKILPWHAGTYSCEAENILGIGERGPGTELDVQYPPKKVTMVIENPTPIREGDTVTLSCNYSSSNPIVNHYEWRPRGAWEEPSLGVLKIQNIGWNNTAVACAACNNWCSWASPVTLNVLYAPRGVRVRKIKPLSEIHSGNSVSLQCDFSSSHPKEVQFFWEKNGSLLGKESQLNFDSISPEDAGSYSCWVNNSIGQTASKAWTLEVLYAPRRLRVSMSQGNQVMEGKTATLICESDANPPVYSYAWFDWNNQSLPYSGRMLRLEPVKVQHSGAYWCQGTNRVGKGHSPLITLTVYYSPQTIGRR
Experiment: ELISA, coated monkey CD22 protein, antibody 0.0001 nM
REPORTED_ENDPOINT: OD450 (OD450)
Dear colleague, please return just the value in OD450, with no unit written.

F1.200.11 (antibody, human IgG1, kappa, V domains shown, human-murine chimeric IgG1 kappa) VH: QNQLVQSGPELKKPGETVKISCKASGYTFTTAGMQWVQKMPGKGFKWIGWINTLSGEPKYAEDFKGRFAFSLETSATTAYLQISNLKNEDTATYFCARAYYSNLYWYFDVWGTGTTVTVSS VL: DIVMTQSQKFMSTTVGDRVTITCKASQNVVTAVAWYQQKPGQSPKVLIYSASNRYSGVPDRFTGSGSGTDFTLTISNMHSEDLANYFCHQYSSYPFTFGSGTKLEIKR    0.06

Now examine the next entry.
Task item: I am curious: what OD450 value has been reported for F2.205.9 (antibody, human IgG1, lambda, V domains shown, human-murine chimeric IgG1 lambda; VL name legible) VH: QVTLKESGPGILQPSQTLSLTCSFSGFSLSTSGMGVGWIRQPSGKGLEWLAHIWWDDDEYYNPALKSRLTISKDTSKNQVFLKIANVDTADTATYYCARISIPYGYYDWFFDVWGTGTTVTVSA VL: QAVVTQESALTTSPGETVTLTCRSSTGAVTTRNYANWVQEKPDHLFTGLIGGTNNRAPGVPARFSGSLIGDKAALTITGAQTEDEAIYFCALWYSNHFIFGSGTKVTVLG ?
Reply: 0.16
